experiment: in vivo; details: both, New Zealand albino, rabbit, sclera, iv, 1 mg/kg
recorded.endpoint: Tmax

Recorded Tmax of `C[C@@H]1C[C@H]2[C@@H]3CCC4=CC(=O)C=C[C@]4(C)[C@@]3(F)[C@@H](O)C[C@]2(C)[C@@]1(O)C(=O)CO` , please.
3 h

---

assay: in vivo; conditions: both, New Zealand albino, rabbit, vitreous, iv, 1 mg/kg
recorded.endpoint: Tmax
Answer format: number, then unit.

Recorded Tmax of `C[C@@H]1C[C@H]2[C@@H]3CCC4=CC(=O)C=C[C@]4(C)[C@@]3(F)[C@@H](O)C[C@]2(C)[C@@]1(O)C(=O)CO` , please.
1 h

---

assay: in vivo; settings: both, New Zealand albino, rabbit, sclera, iv, 1 mg/kg
recorded.endpoint: Cmax (ng/g)
Please give a number only; it is taken to be in ng/g.

Recorded Cmax of C[C@@H]1C[C@H]2[C@@H]3CCC4=CC(=O)C=C[C@]4(C)[C@@]3(F)[C@@H](O)C[C@]2(C)[C@@]1(O)C(=O)CO [dexamethasone] , please.
403

---

assay: in vivo; details: both, New Zealand albino, rabbit, vitreous, iv, 1 mg/kg
recorded.endpoint: AUC(0-t) (µg·h/mL)
Please give a number only; it is taken to be in µg·h/mL.

Recorded AUC(0-t) of `C[C@@H]1C[C@H]2[C@@H]3CCC4=CC(=O)C=C[C@]4(C)[C@@]3(F)[C@@H](O)C[C@]2(C)[C@@]1(O)C(=O)CO` , please.
0.285

---

test: in vivo; details: both, New Zealand albino, rabbit, choroid/retina, iv, 1 mg/kg
recorded.endpoint: Cmax (ng/g)
Please give a number only; it is taken to be in ng/g.

Recorded Cmax of `C[C@@H]1C[C@H]2[C@@H]3CCC4=CC(=O)C=C[C@]4(C)[C@@]3(F)[C@@H](O)C[C@]2(C)[C@@]1(O)C(=O)CO` , please.
285

---

assay: in vivo; conditions: both, New Zealand albino, rabbit, vitreous, topical or ocular, 6.5 mg
recorded.endpoint: AUC(0-t) (ng·h/mL)
Please give a number only; it is taken to be in ng·h/mL.

Recorded AUC(0-t) of `C[C@@H]1C[C@H]2[C@@H]3CCC4=CC(=O)C=C[C@]4(C)[C@@]3(F)[C@@H](O)C[C@]2(C)[C@@]1(O)C(=O)CO` , please.
1410

Ref: paper PMC8241022
